Data provenance: ChEMBL document CHEMBL1144850

system: KM-20L2; test: Cytotoxicity against human KM20L2 cells after 48 hrs by SRB assay; assay type: functional; settings: Homo sapiens, KM-20L2, 48 h
reported endpoint: GI50 (nM)
Field format: number, assumed nM, no unit text.

Solved cases below.
smiles string | reported endpoint | unit spec | measured result
COc1ccc(/C=C\c2cc(OC)c(OC)c(OC)c2)c(N)c1N | GI50 | nM | 19
COc1cc([N+](=O)[O-])c(/C=C\c2cc(OC)c(OC)c(OC)c2)cc1N | GI50 | nM | 3500

Task: State measured GI50 of the molecule COc1cc(/C=C\c2ccc(OC)c([N+](=O)[O-])c2[N+](=O)[O-])cc(OC)c1OC with KM-20L2.
Result: 330

Task: State measured GI50 of the molecule COc1cc(N)c(/C=C\c2cc(OC)c(OC)c(OC)c2)cc1N with KM-20L2.
Result: 440

Task: State measured GI50 of the molecule COc1cc([N+](=O)[O-])c(/C=C\c2cc(OC)c(OC)c(OC)c2)cc1[N+](=O)[O-] with KM-20L2.
Result: 4600

Task: State measured GI50 of the molecule COc1cc(/C=C\c2cc(N)c(OC)c(N)c2)cc(OC)c1OC with KM-20L2.
Result: 1100
